Tested on: Blumeria graminis f. sp. tritici
Assay: Test C: test suspension sprayed on wheat seedlings, inoculated next day with Blumeria graminis f. sp. tritici (wheat powdery mildew); visual disease rating (100 = 100% disease control, 0 = no control; dash = not tested)
Assay type: in vivo
Conditions: 50 ppm
Overview of reported Test C disease control rating across a group of molecules:

{"molecule": "COc1cc(C#N)cc(-c2cc(=O)n(C)nc2-c2cc(C#N)cc(OC)c2)c1 [Compound 204]", "assay_target": "Blumeria graminis f. sp. tritici", "Test C disease control rating (%)": 0}
{"molecule": "COc1ccc(Cl)c(-c2nn(C)c(=O)c(OC)c2-c2ccc(F)cc2F)c1 [Compound 48]", "assay_target": "Blumeria graminis f. sp. tritici", "Test C disease control rating (%)": 99}
{"molecule": "COc1c(-c2ccc(F)cc2Cl)c(-c2cccc(Cl)c2F)nn(C)c1=O [Compound 109]", "assay_target": "Blumeria graminis f. sp. tritici", "Test C disease control rating (%)": 99}
{"molecule": "COc1c(-c2ccc(F)cc2Cl)c(-c2cc(F)ccc2Cl)nn(C)c1=O [Compound 120]", "assay_target": "Blumeria graminis f. sp. tritici", "Test C disease control rating (%)": 99}
{"molecule": "Cn1nc(-c2ccccc2Cl)c(-c2ccc(F)cc2Cl)c(O)c1=O [Compound 182]", "assay_target": "Blumeria graminis f. sp. tritici", "Test C disease control rating (%)": 0}
{"molecule": "COc1ccc(Br)c(-c2nn(C)c(=O)c(Cl)c2-c2ccc(F)cc2Cl)c1 [Compound 118]", "assay_target": "Blumeria graminis f. sp. tritici", "Test C disease control rating (%)": 99}
{"molecule": "COc1cc(OC)cc(-c2nn(C)c(=O)c(C)c2-c2ccc(F)cc2Cl)c1 [Compound 65]", "assay_target": "Blumeria graminis f. sp. tritici", "Test C disease control rating (%)": 98}
{"molecule": "COc1cc(F)c(Cl)c(-c2nn(C)c(=O)c(Cl)c2-c2ccc(F)cc2Cl)c1 [Compound 157]", "assay_target": "Blumeria graminis f. sp. tritici", "Test C disease control rating (%)": 100}

---

Overview of reported melting point across a group of molecules:

{"molecule": "CCN1N=C(c2cc(OC)cc(OC)c2)C(c2c(F)cccc2F)CC1=O (centres unmarked)", "melting point": "119 to 122 °C"}
{"molecule": "COc1cc(OC)c(Cl)c(-c2nn(C)c(=O)c(OC)c2-c2ccc(F)cc2Cl)c1", "melting point": "130 to 133 °C"}
{"molecule": "COc1ccc(Cl)c(-c2nn(C)c(=O)c(Cl)c2-c2ccc(F)cc2Cl)c1", "melting point": "165 to 168 °C"}
{"molecule": "COc1cc(OC)c([N+](=O)[O-])c(-c2nn(C)c(=O)cc2-c2c(F)cccc2F)c1", "melting point": "174 to 178 °C"}
{"molecule": "Cc1c(-c2ccc(F)cc2Cl)c(-c2ccc(F)cc2Cl)nn(C)c1=O", "melting point": "126 to 129 °C"}
{"molecule": "COc1cc(OC)cc(-c2nn(C)c(=O)c(Cl)c2-c2c(F)cccc2F)c1", "melting point": "150 to 154 °C"}
{"molecule": "COc1ccc(Cl)c(-c2nn(C)c(=O)c(C)c2-c2ccc(F)cc2Cl)c1", "melting point": "149 to 150 °C"}
{"molecule": "Cn1nc(-c2ccc(F)cc2Cl)c(-c2ccc(F)cc2Cl)c(C#N)c1=O", "melting point": "137 to 140 °C"}
{"molecule": "COc1cc(OC)c([N+](=O)[O-])c(-c2nn(C)c(=O)c(Cl)c2-c2c(F)cccc2F)c1", "melting point": "223 to 227 °C"}
{"molecule": "COc1ccc(Cl)c(-c2nn(C)c(=O)c(C)c2-c2c(F)cccc2F)c1", "melting point": "135 to 138 °C"}
{"molecule": "COc1cc(OC)c(Cl)c(-c2nn(C)c(=O)c(Cl)c2-c2c(F)cccc2F)c1", "melting point": "192 to 196 °C"}
{"molecule": "COc1cc(OC)cc(C2=NN(C)C(=O)CC2c2c(F)cccc2F)c1 (centres unmarked)", "melting point": "139 to 142 °C"}
{"molecule": "COc1cc(OC)c(Cl)c(-c2nn(C)c(=O)cc2-c2ccc(F)cc2Cl)c1", "melting point": "121 to 125 °C"}
{"molecule": "COc1cc(-c2nn(C)c(=O)cc2-c2c(F)cccc2F)cc(OC)c1Cl", "melting point": "221 to 225 °C"}
{"molecule": "COc1cc(OC)cc(-c2nn(C)c(=O)c(Br)c2-c2c(F)cccc2F)c1", "melting point": "153 to 157 °C"}
{"molecule": "COc1cc(OC)cc(-c2nn(C)c(=O)cc2-c2c(F)cccc2F)c1", "melting point": "132 to 136 °C"}
{"molecule": "COc1cc(OC)c(Cl)c(-c2nn(C)c(=O)cc2-c2c(F)cccc2F)c1", "melting point": "172 to 176 °C"}
